System: Cell-based VP16 transactivation luciferase reporter, luminescence
Assay: compounds lowering VP16-driven luciferase output – cell-based, luminescence, counter-screen for LRH-1 inverse agonist project, dose response (AID 651973)
Active and inactive are the calls of the source. How the calls were made is not given here.
metric: IC50

* COc1ccccc1NC(=O)CN1CCN(CC(=O)Nc2ccc(S(N)(=O)=O)cc2)CC1 | 20.4 µM (inactive)

Asked: Can you look up IC50 on Cell-based VP16 transactivation luciferase reporter, luminescence for `O=C(Nc1nc2c(Cl)cccc2s1)c1ccc([N+](=O)[O-])o1` ?
Given back: > 35.9 µM (inactive)

Asked: Can you look up IC50 on Cell-based VP16 transactivation luciferase reporter, luminescence for COc1ccc(CC(NC(C)=O)C(=O)NC2CCN(c3nnnn3-c3ccccc3)CC2)cc1 (stereo unspecified) ?
Given back: > 35.9 µM (inactive)
